Origin of the recorded values: PubChem BioAssay AID1918990

z-score values, listed per item
- measurement protocol: fixK promoter GFP reporter activation – B. multivorans, primary screen (AID 1918990)
- experimental setup: 18 h, hits give high values
The whole screen tested about 29,000 compounds, of which about 85 (0.3%) were called active. Many of the other results were omitted from the sample, so actives are more common in it than they were.
Lab note: jot the number down without any unit.

Reference set (2 entries):
CN(Cc1cnn(-c2ccc(F)cc2)c1)C(=O)C(C)(C)N1CCOCC1 : -1.96
COc1cccc(CNC(=O)c2cc(=O)[nH]c3ccc(S(=O)(=O)N4CCCCC4)cc23)c1 : -0.5

Here is another molecule to look at.
**Query** Requested read-out: z-score. Entry: Cc1ccc2oc3c(c(=O)c2c1)C(c1ccc(O)cc1)N(Cc1ccc2c(c1)OCO2)C3=O (stereo not drawn)
**Result** -1.07
